The measurements presented in this section are drawn from the Immune Epitope Database (IEDB).

measurement target: HLA-A*30:01
assay summary: IEDB peptide-MHC binding, purified MHC/competitive/radioactivity; filed as Kd, often an IC50 or EC50 that approximates it; bounds were set here for any values at or beyond the usual limits of such assays
experimental context: source organism: Mammarenavirus choriomeningitidis
pKd: −log10 of the molar value.
experimental endpoint: pKd

Lookup: Could you tell me which pKd is on file for DTSNTGRAEL ?
Found: ≤ 4.61

====

measurement target: HLA-A*02:12
assay summary: IEDB peptide-MHC binding, purified MHC/direct/fluorescence; filed as Kd, often an IC50 or EC50 that approximates it; bounds were set here for any values at or beyond the usual limits of such assays
experimental context: source organism: Bacillus anthracis str. Sterne
pKd: −log10 of the molar value.
experimental endpoint: pKd

Lookup: Requested read-out: pKd. Entry: KKNHWFILK
Found: ≤ 4.70

====

measurement target: HLA-B*58:01
assay summary: IEDB peptide-MHC binding, purified MHC/direct/fluorescence; filed as Kd, often an IC50 or EC50 that approximates it; bounds were set here for any values at or beyond the usual limits of such assays
experimental context: source organism: Camelpox virus CMS
experimental endpoint: Kd

Lookup: Observed Kd on HLA-B*58:01 for VIARTHTAL , please.
Found: ≥ 20 µM

====

measurement target: HLA-B*51:01
assay summary: IEDB peptide-MHC binding, purified MHC/direct/fluorescence; filed as Kd, often an IC50 or EC50 that approximates it; bounds were set here for any values at or beyond the usual limits of such assays
experimental context: source organism: Human alphaherpesvirus 1
experimental endpoint: pKd
API: returns pKd as number; meaning -log10 of concentration in mol/L.

Lookup: Need pKd of MPYAAHDPI , thanks.
Found: 6.44

====

measurement target: HLA-A*02:03
assay summary: IEDB peptide-MHC binding, purified MHC/competitive/radioactivity; filed as Kd, often an IC50 or EC50 that approximates it; bounds were set here for any values at or beyond the usual limits of such assays
experimental context: source organism: Dengue virus 2 Peru/IQT2913/1996
experimental endpoint: pKd
Conceptually, pKd converts a concentration in mol/L into minus its log10.

Lookup: Which measured pKd value corresponds to FLFLMSGRGI ?
Found: 8.20

====

measurement target: HLA-B*73:01
assay summary: IEDB peptide-MHC binding, purified MHC/competitive/fluorescence; filed as Kd, often an IC50 or EC50 that approximates it; bounds were set here for any values at or beyond the usual limits of such assays
experimental context: source organism: Francisella tularensis subsp. tularensis FSC198
experimental endpoint: Kd (µM)
Lab book: enter the figure in µM, no units written.

Lookup: Query (sequence): YRAKVKPWA ; field requested: Kd
Found: 4.5

====

pKd values by entry
measurement target: HLA-A*69:01
assay summary: IEDB peptide-MHC binding, purified MHC/competitive/fluorescence; filed as Kd, often an IC50 or EC50 that approximates it; bounds were set here for any values at or beyond the usual limits of such assays
experimental context: source organism: Bacillus anthracis str. A0488
pKd: −log10 of the molar value.

SYMLQGLRK | ≤ 4.70

Next, consider the following sequence.
Lookup: Report pKd for IQKGMFVVK please.
Found: ≤ 4.70

====

measurement target: HLA-C*06:02
assay summary: IEDB peptide-MHC binding, purified MHC/competitive/fluorescence; filed as Kd, often an IC50 or EC50 that approximates it; bounds were set here for any values at or beyond the usual limits of such assays
experimental context: source organism: Mus musculus
experimental endpoint: Kd (nM)
Give your result in nM as a bare value.

Lookup: # Kd lookup, item FRMLAWHVL
Found: 3.8

====

A collection of sequences and their measured Kd
measurement target: HLA-B*35:01
assay summary: IEDB peptide-MHC binding, purified MHC/competitive/radioactivity; filed as Kd, often an IC50 or EC50 that approximates it; bounds were set here for any values at or beyond the usual limits of such assays
experimental context: source organism: Dengue virus 2 Jamaica/1409/1983
Kindly answer with a numeric value in nM, unit omitted.

LPGADTQGSN | 2840

Lookup: Entry LAYTIGTTHF : reported Kd = ?
Found: 1410

====

measurement target: HLA-B*44:02
assay summary: IEDB peptide-MHC binding, purified MHC/competitive/radioactivity; filed as Kd, often an IC50 or EC50 that approximates it; bounds were set here for any values at or beyond the usual limits of such assays
experimental context: source organism: Mammarenavirus guanaritoense
experimental endpoint: Kd (µM)
Use µM as the unit, but write only the number.

Lookup: Query: Kd; subject: PDFELLLSL
Found: 7.83

====

Each entry below carries its reported IC50.
measurement target: HLA-A*24:02
assay summary: IEDB peptide-MHC binding, purified MHC/competitive/fluorescence; bounds were set here for any values at or beyond the usual limits of such assays
experimental context: source organism: Vaccinia virus Copenhagen
Write it as a number; the unit nM goes unstated.

QMTSTFIML | 224

// next entry
Lookup: Can you share its IC50? I mean this sequence: LSSQMTSTF
Found: 788

====

measurement target: HLA-A*24:02
assay summary: IEDB peptide-MHC binding, purified MHC/competitive/fluorescence; bounds were set here for any values at or beyond the usual limits of such assays
experimental context: source organism: Homo sapiens
experimental endpoint: pIC50
Please treat pIC50 as minus the base-10 logarithm of the molar concentration.

Lookup: Tell me the measured pIC50 of FYYNAFHW , please.
Found: 5.58

====

measurement target: HLA-A*03:01
assay summary: IEDB peptide-MHC binding, purified MHC/competitive/fluorescence; filed as Kd, often an IC50 or EC50 that approximates it; bounds were set here for any values at or beyond the usual limits of such assays
experimental context: source organism: Vibrio vulnificus YJ016
experimental endpoint: Kd (nM)
Dear colleague, please return just the value in nM, with no unit written.

Lookup: Fill in: Kd of KMFNRASYF is ___
Found: 4.8

====

measurement target: HLA-A*02:01
assay summary: IEDB peptide-MHC binding, purified MHC/direct/fluorescence; filed as Kd, often an IC50 or EC50 that approximates it; bounds were set here for any values at or beyond the usual limits of such assays
experimental context: source organism: Shigella flexneri
experimental endpoint: Kd

Lookup: Looking for the measured Kd of KTTLFHTFK , can you help?
Found: ≥ 20 µM

====

measurement target: HLA-B*15:01
assay summary: IEDB peptide-MHC binding, purified MHC/direct/fluorescence; filed as Kd, often an IC50 or EC50 that approximates it; bounds were set here for any values at or beyond the usual limits of such assays
experimental context: source organism: Rickettsia sibirica
experimental endpoint: Kd (µM)
Give the number; µM is assumed, so skip it.

Lookup: Which Kd is listed for ASDRISGIL ?
Found: 5.16

====

measurement target: HLA-A*02:16
assay summary: IEDB peptide-MHC binding, purified MHC/direct/fluorescence; filed as Kd, often an IC50 or EC50 that approximates it; bounds were set here for any values at or beyond the usual limits of such assays
experimental context: source organism: Vibrio vulnificus YJ016
experimental endpoint: Kd

Lookup: Which measured Kd belongs to MKYVWPPIM , tested on HLA-A*02:16?
Found: ≥ 20 µM

====

measurement target: HLA-B*40:01
assay summary: IEDB peptide-MHC binding, purified MHC/competitive/radioactivity; filed as Kd, often an IC50 or EC50 that approximates it; bounds were set here for any values at or beyond the usual limits of such assays
experimental context: source organism: SARS coronavirus Tor2
Listed here: items and their measured Kd.
The reply should be a number in nM, with the unit left off.

Below: 2 sequences and their reported Kd.
YEGNSPFHPL | 46.2
IDYDCVSFCY | 10500

Please find the next sequence below.
Lookup: // returns reported Kd for input SEYDYVIFT
Found: 998

====

measurement target: HLA-B*15:17
assay summary: IEDB peptide-MHC binding, purified MHC/competitive/fluorescence; filed as Kd, often an IC50 or EC50 that approximates it; bounds were set here for any values at or beyond the usual limits of such assays
experimental context: source organism: Coxiella burnetii RSA 331
experimental endpoint: pKd
Reminder that pKd is minus the log10 of a molar concentration.

Lookup: Consider the sequence shown here: HEGDIVPLF What is its recorded pKd?
Found: 6.19

====

measurement target: HLA-B*15:09
assay summary: IEDB peptide-MHC binding, purified MHC/direct/fluorescence; filed as Kd, often an IC50 or EC50 that approximates it; bounds were set here for any values at or beyond the usual limits of such assays
experimental context: source organism: West Nile virus strain PTRoxo
experimental endpoint: Kd

Lookup: Using the record for TSDYINTSL , report its Kd.
Found: ≥ 5 µM

====

Listing: pIC50 of selected sequences
measurement target: HLA-A*11:01
assay summary: IEDB peptide-MHC binding, purified MHC/competitive/fluorescence; bounds were set here for any values at or beyond the usual limits of such assays
experimental context: source organism: Zaire ebolavirus
A value of pIC50 is the negative decimal logarithm of a concentration given in moles per litre.

TLQVSDVDK | 4.38
LGLDDQEKK | 4.51

Now consider a different sequence.
Lookup: Form field: reported pIC50 of GHGFRFEVK
Found: 5.50
